melting point values by entry

MOLECULE	melting point
COc1cc(OC)c(C2C=CCN(C)C2)c(OC)c1 (stereo not given)	118 to 122 °C
COc1cccc2c(=O)[nH]c(C)nc12	261 to 262 °C
COc1cccc2c(=O)c(O)coc12	180 to 183 °C
Cc1oc(-c2ccccc2)nc1COc1ccc(CCc2oc(-c3ccccc3)nc2CC#N)cc1	97 to 98 °C
NS(=O)(=O)Cc1ccc2[nH]cc(CCN3C(=O)c4ccccc4C3=O)c2c1	186 to 188 °C
Oc1c(-c2ccccc2)nn(Cc2ccccc2)c1-c1ccccc1	194 to 195 °C
COCCNC(=O)CC1CN=C(c2cc3cc(Oc4ccc(S(C)(=O)=O)nc4)cc(OC)c3[nH]2)S1 (stereo not given)	175 to 176 °C
Cc1cc(=O)c2c(o1)CCOC2	107 to 110 °C
CC(C)(C)C(=O)CN1C(=O)c2ccccc2C1=O	96 to 99 °C
Cc1c(N2CCCCC2)ccnc1CSc1nc2cc(N3CCCCC3)c(F)cc2[nH]1	161 to 162 °C
COc1ccc2cc(CCCOCCCCCCNCC(O)c3ccc(O)c(NS(C)(=O)=O)c3)ccc2c1 (stereo not given)	87 to 89 °C
CCC(=NO)c1cc(Br)c(O)c(CN)c1	174 to 175 °C
CCOC(=O)C(C)(C)Oc1cc2c(cc1C)OC1(CC(C)(C)c3cc(O)c(C)cc3O1)CC2(C)C (single isomer, unassigned; (-))	165 to 166 °C
COc1ccc(NS(=O)(=O)c2cc(C)cc(C(C)(C)C)c2O)cc1	130 to 134 °C
COc1cccc(OC)c1-c1ccc(C[C@H](NC(=O)c2c(Cl)cc(-c3cscn3)cc2Cl)C(=O)O)cc1	186 °C
CCC(C)Cc1ccc(C(=O)O)cc1C#N (stereo not given)	91.2 to 92.1 °C
COc1cc(C(C)=O)ccc1OCCN1CCC(c2noc3cc(Cl)ccc23)CC1	133 to 135 °C
Cc1ccc(-c2nc(Sc3ccc(Cl)cc3)cc(N3CCN(CCO)CC3)n2)cc1	123 to 125 °C
CC(=O)OCCNc1nnc(-c2ccccc2)cc1C	127 °C
CCN1CCN(CC)C2SC(=C(C(=O)OC(C)C)C(=O)OC(C)C)SC21 (stereo not given)	84 to 86 °C

* * *

melting point values by entry
MEASURED METRIC: melting point

COMPOUND	OBSERVED
COC(=O)c1nc(-c2ccc(Cl)c(OC)c2F)nc(N)c1Br	173 to 175 °C
O=C1OC2(CCCCC2)OC(=O)C12CC2	134 to 135 °C
COc1cc(C=O)c(OC)c(C)c1C	69 to 71 °C
CN(C)C(=O)C(C)(c1ccccc1)n1ccc(-c2ccccc2)n1 (stereo not given)	129 to 132 °C
CN(C)c1nnc(SCC(=O)C23CC4CC(CC(C4)C2)C3)s1	150 to 151 °C
Oc1ccc2c(c1)COc1c-2cc2ccc(O)cc2c1-c1cccs1	233 to 236 °C
COc1ccccc1C1=C(C#N)C(c2ccccc2[N+](=O)[O-])c2c[nH]nc2N1 (stereo not given)	207 °C
CCc1nc2c(N)nc(C)c(C)c2n1CCOCCNC(=O)C1CCCCC1	170 to 172 °C
CCOC(C)OCC(O)CN1C(CO)=Cc2ccsc2S1(=O)=O (stereo not given)	95 to 97 °C
C=CCOc1ccccc1C1C(C(=O)OCC)=C(C)NC(C=O)=C1C(=O)OCC (stereo not given)	129 to 131 °C
